test: chemical genetic growth profiling, strain panel (AID 1159580);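 note: tested at 20 µM; growth read once vehicle control cultures reached saturation at 30 °C; 1 = growth at the plate median or of vehicle wells; lower values mean less growth of the strain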; settings: S. cerevisiae deletion strains, growth OD, locus YJL115W, strain asf1
In all, about 5,500 compounds went through this assay and about 2,000 (36%) were called active. About 18% were inconclusive and are not listed. Cut-off read from the data, not from the text of the source: active = normalized growth mostly below about 0.91 (no sharp cut-off); inconclusive = no clear call, values can overlap the other calls; inactive = mostly above about 0.92. The list shows a part of the results.
Choose one outcome from this list and give only that: label 1 (active), label 0 (inactive)

Please review the entries below; each comes with its answer.
compound	classification
COc1ccc2c(c1)O[C@H]1c3ccc(OC)cc3OC[C@@H]21	label 0
COC(=O)[C@@H]1OC(=O)[C@H]2O[C@@]23[C@@]1(C)CCC1[C@@]2(C)CCC(=O)C(C)(C)C2C[C@@H](OC(C)=O)[C@]13C (stereo partly specified)	label 0
CC1OC1P(=O)(O)O (stereo unspecified)	label 0
NS(=O)(=O)c1cc2c(cc1Cl)NC(C(Cl)Cl)NS2(=O)=O (stereo unspecified)	label 0
CO/N=C(\C(=O)N[C@@H]1C(=O)N2C(C(=O)O)=C(CSc3nc(=O)c(O)nn3C)CS[C@H]12)c1csc(N)n1	label 0
CC(C)NCC(O)COc1cccc2ccccc12 (stereo unspecified)	label 0
C#CCCCCCCCCCCCC(O)CC(O)COC(C)=O (stereo unspecified)	label 0
CC(C)NC[C@H](O)COc1cccc2ccccc12	label 0
COc1ccc(CCN2CCC(Nc3nc4ccccc4n3Cc3ccc(F)cc3)CC2)cc1	label 0
C=CCSCC1Nc2cc(Cl)c(S(N)(=O)=O)cc2S(=O)(=O)N1 (stereo unspecified)	label 0

Prompt: So what was the verdict on CC[N+](CC)(CC)CCOc1cccc(OCC[N+](CC)(CC)CC)c1OCC[N+](CC)(CC)CC in this test?
Completion: label 0

Prompt: Entry COc1cc([C@@H]2c3cc4c(c(O)c3C[C@H]3COC(=O)[C@@H]32)OCO4)cc(OC)c1OC : call = ?
Completion: label 0

###

This section presents compounds with their documented normalized growth values.
experiment: chemical genetic growth profiling, strain panel (AID 1159580);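 note: tested at 20 µM; growth read once vehicle control cultures reached saturation at 30 °C; 1 = growth at the plate median or of vehicle wells; lower values mean less growth of the strain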; details: S. cerevisiae deletion strains, growth OD, locus YEL061C, strain CIN8, stronger effect = lower value
Among all 5,500 compounds or so, about 2,000 (36%) were called active. Another 18% or so got no clear call; they are omitted. The list shows a part of the results.
The answer should be written as a number, with no unit following it.

Previously resolved entries follow.
> print(dat)
                                   compound  value
1  CCCNC1CCc2nc(N)sc2C1 (stereo unspecified)   1.01
2  C=C1C(C)C2C(Cc3ccccc3)NC(=O)C23OC(=O)/C=C/C(O)CCCC(C)C/C=C/C3C1O (stereo unspecified)      1
3      CC1OC1P(=O)(O)O (stereo unspecified)      1

Prompt: Dear colleague, please send me the reported normalized growth for CCOC(=O)Nc1ccsc1C(=O)OC when you can.
Completion: 0.974

Prompt: Retrieve normalized growth measured for O=c1[nH]oc2c1CCNC2 and print it.
Completion: 0.999

Prompt: Given the compound CC[N+](CC)(CC)CCOc1cccc(OCC[N+](CC)(CC)CC)c1OCC[N+](CC)(CC)CC , write its reported normalized growth.
Completion: 1.01

###

assay: chemical genetic growth profiling, strain panel (AID 1159580);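 note: tested at 20 µM; growth read once vehicle control cultures reached saturation at 30 °C; 1 = growth at the plate median or of vehicle wells; lower values mean less growth of the strain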; settings: S. cerevisiae deletion strains, growth OD, locus YPR141C, strain kar3, stronger effect = lower value
The whole screen tested about 5,500 compounds, of which about 2,000 (36%) were called active. Another 18% or so got no clear call; they are omitted. The list shows a part of the results.
Entries and their normalized growth values follow.

Prompt: Given the molecule CC1(C)OC(=O)C=CC2(C)C1CC(O)C1(C)C2CCC2(C)C(c3ccoc3)OC(=O)C3OC321 (stereo unspecified) , write its reported normalized growth.
Completion: 1.01 (inactive)

Prompt: Give the value of normalized growth reported for the following: Cc1cc(NC(=O)C2=C(O)c3ccccc3S(=O)(=O)N2C)no1
Completion: 0.919 (inactive)

Prompt: Please report normalized growth for the following molecule: CN1C(C(=O)Nc2ccccn2)=C(O)c2ccccc2S1(=O)=O
Completion: 0.923 (inactive)

Prompt: Identify measured normalized growth corresponding to Cc1cccc(C)c1NC1=NCCCS1
Completion: 0.982 (inactive)

Prompt: Please give the documented normalized growth of CC(C)NNC(=O)c1ccncc1
Completion: 1.01 (inactive)

Prompt: For the molecule O=c1cc[nH]c(=S)[nH]1 , report normalized growth.
Completion: 1.01 (inactive)
